targetEntity: stromelysin (Homo sapiens, UniProt P08254)
Construct: made in house; host or cells: E. coli
Sequence (P08254 100-272 limits assumed): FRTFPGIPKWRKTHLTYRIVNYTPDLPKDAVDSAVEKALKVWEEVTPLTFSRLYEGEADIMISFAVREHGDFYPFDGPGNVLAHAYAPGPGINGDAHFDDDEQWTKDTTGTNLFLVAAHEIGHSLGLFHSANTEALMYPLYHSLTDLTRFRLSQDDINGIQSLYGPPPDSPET
testDescription: Determination of stromelysin inhibition (thiopeptide ester substrate cleavage, DTNB, microtiter plate)
Type: biochemical
conditionLabel: recombinant truncated stromelysin (human sequence); thiopeptide ester substrate, pH 6.5, 30 min, ambient temperature; read-out: IC50 (Inhibitory Potencies against Stromelysin)
parameterMeasured: IC50 (nM)

smilesText: C=CC[C@H](C(=O)NO)[C@@H](CC(C)C)C(=O)N[C@@H](Cc1ccccc1)C(C)=O
unitsLabel: nM
IC50: 16

a: CON=C(c1c[nH]c2ccccc12)[C@H](Cc1ccccc1)NC(=O)[C@@H](CC(=O)NO)CC(C)C
b: CC(C)C[C@@H](C(=O)N[C@H](C(=O)c1c[nH]c2ccccc12)C(C)(C)C)[C@H](O)C(=O)NO
query: Field: lower IC50 | Options: a / b Select an item and report its label.
result: b
(b: 1.2 nM, a: 320 nM)

----------
targetEntity: stromelysin (Homo sapiens, UniProt P08254)
Construct: made in house; host or cells: E. coli
testDescription: Determination of stromelysin inhibition (thiopeptide ester substrate cleavage, DTNB, microtiter plate)
Type: biochemical
conditionLabel: recombinant truncated stromelysin (human sequence); thiopeptide ester substrate, pH 6.5, 30 min, ambient temperature; read-out: IC50 (Inhibitory Potencies against Stromelysin)
parameterMeasured: IC50 (nM)

Examples from the recorded data:
smilesText: CC(C)C[C@H](CC(=O)NO)C(=O)N[C@@H](CC(=O)O)C(=O)c1c[nH]c2ccccc12
IC50 / nM: 740
--
smilesText: C=CCCC[C@H](C(=O)NO)[C@@H](CCCc1ccc(C)cc1)C(=O)N[C@@H](Cc1ccccc1)C(=O)c1c[nH]c2ccccc12
IC50 / nM: 8.6
--
smilesText: O=C(C[C@H](C(=O)N[C@@H](Cc1ccc(O)cc1)C(=O)c1ccccc1)C1CCCCC1)NO
IC50 / nM: 110
--
smilesText: C=CCCC[C@H](C(=O)NO)[C@@H](CC(C)C)C(=O)N[C@@H](Cc1ccccc1)C(=O)c1c[nH]c2ccccc12
IC50 / nM: 3.6
--
smilesText: O=C(c1c[nH]c2ccccc12)[C@H](Cc1ccccc1)NC(=O)[C@H](CCCc1ccccc1)[C@H](O)C(=O)NO
IC50 / nM: 2.7
--
smilesText: C=CC[C@H](C(=O)NO)[C@@H](CC(C)C)C(=O)N[C@@H](CC1CCCCC1)C(=O)c1ccccc1
IC50 / nM: 7.3
--
smilesText: CC(C)C[C@@H](C(=O)N[C@@H](Cc1ccccc1)C(=O)c1c[nH]c2ccccc12)[C@H](O)C(=O)NO
IC50 / nM: 7.8
--
smilesText: O=C(c1c[nH]c2ccccc12)[C@H](Cc1ccccc1)NC(=O)[C@@H](CCCc1ccccc1)[C@H](O)C(=O)NO
IC50 / nM: 320

A: CC(C)C[C@H](CC(=O)NO)C(=O)N[C@@H](Cc1ccccc1)C(=O)c1c[nH]c2ccccc12
B: CC(C)C[C@@H](C(=O)N[C@@H](Cc1ccccc1)C(=O)c1c[nH]c2ccccc12)[C@H](O)C(=O)O
query: // pick larger IC50 from pair: A vs B # answer = label of selected item
result: B

1: CC(C)C[C@@H](C(=O)N[C@@H](Cc1ccccc1)C(=O)c1ccccc1)[C@H](O)C(=O)NO
2: C=CCCC[C@H](C(=O)O)[C@@H](CCCc1ccc(C)cc1)C(=O)N[C@@H](Cc1ccccc1)C(=O)c1c[nH]c2ccccc12
3: C=CC[C@H](C(=O)NO)[C@@H](CC(C)C)C(=O)N[C@@H](Cc1ccccc1)C(=O)c1ccc[nH]1
query: Please rank these molecules by IC50 in descending order. Lab note: record answer as labels in requested order.
result: 1, 2, 3
